- TARGET_OR_TEST_SYSTEM: T1, Cynomolgus CD3 on Cyno CD3+ Jurkat cells (cynomolgus, UniProt Q95LI5 22-198)
- T1 construct: whole, on cells; CD3 on cells; also called cCD3
- T1 sequence (Q95LI5 22-198): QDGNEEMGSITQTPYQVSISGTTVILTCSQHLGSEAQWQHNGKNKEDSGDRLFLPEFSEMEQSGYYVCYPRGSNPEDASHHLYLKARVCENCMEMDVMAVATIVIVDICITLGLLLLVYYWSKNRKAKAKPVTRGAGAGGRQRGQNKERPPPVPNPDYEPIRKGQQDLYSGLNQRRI
- METHOD_SUMMARY: cell binding cCD3, fold over background
OBSERVED_PROPERTY: Cell Binding cCD3 (FOB)
Report the value in FOB with no unit label.

Ask: Request the reported Cell Binding cCD3 (FOB) associated with ADI-45961 (antibody, V domains shown, also called Ab24) VH: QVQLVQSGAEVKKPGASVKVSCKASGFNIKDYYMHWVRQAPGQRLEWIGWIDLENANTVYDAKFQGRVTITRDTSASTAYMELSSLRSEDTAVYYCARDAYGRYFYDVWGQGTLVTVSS VL: DIVMTQSPDSLAVSLGERATINCKSSQSLLNARTRRNYLAWYQQKPGQPPKLLIYWGSTRESGVPDRFSGSGSGTDFTLTISSLQAEDVAVYYCKQSYFRRTFGGGTKVEIK
Reply: 30

Source listed as patent US20260209352A1.
